Tested on: rainbow trout (Oncorhynchus mykiss)
Test: Contribution of tissues to fish body burden
Assay type: in vivo
Settings: fraction, Fish #2
Rule: Contribution of Mucus to the fish's body burden below 0.1 gives fulfilled, anything at or above gives not fulfilled.

Answered examples (4):
smiles_repr: CCCCCCCCCCCCCN(C)C
answer_label: fulfilled

smiles_repr: CCCCCCCCCN
answer_label: not fulfilled

smiles_repr: CCCCCCCCCCCCCCCCN
answer_label: fulfilled

smiles_repr: CCCCCCCCCCCCN
answer_label: not fulfilled

Query compound follows.
Query :: Is Contribution of Mucus to the fish's body burden of `CCCCCCCCCN(C)C` strictly below 0.1?
Result :: not fulfilled
